Assayed System: Acetylcholinesterase (Homo sapiens, UniProt P22303)
Sequence (P22303 whole entry): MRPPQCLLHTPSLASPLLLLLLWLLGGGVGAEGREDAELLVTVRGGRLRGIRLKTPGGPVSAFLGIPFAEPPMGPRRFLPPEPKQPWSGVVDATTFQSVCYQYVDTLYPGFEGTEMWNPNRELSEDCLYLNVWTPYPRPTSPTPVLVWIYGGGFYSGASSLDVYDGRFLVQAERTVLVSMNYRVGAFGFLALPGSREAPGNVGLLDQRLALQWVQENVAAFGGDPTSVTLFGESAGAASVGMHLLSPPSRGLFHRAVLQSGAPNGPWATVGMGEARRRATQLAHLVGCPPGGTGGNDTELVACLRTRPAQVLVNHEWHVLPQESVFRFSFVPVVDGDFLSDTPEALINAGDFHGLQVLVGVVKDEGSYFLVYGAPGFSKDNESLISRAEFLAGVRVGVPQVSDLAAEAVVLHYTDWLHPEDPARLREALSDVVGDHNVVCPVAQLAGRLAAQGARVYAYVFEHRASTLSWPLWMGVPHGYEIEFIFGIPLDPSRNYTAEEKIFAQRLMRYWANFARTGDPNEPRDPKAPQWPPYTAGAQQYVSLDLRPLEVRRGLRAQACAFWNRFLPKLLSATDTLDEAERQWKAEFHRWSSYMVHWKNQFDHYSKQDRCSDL
Categories are defined by ranges of IC50, namely low = under 1000 nM, moderate = from 1000 nM up to 2000 nM, high = 2000 nM and over

item_smiles=Clc1ccc(/C=N/C2CCN(Cc3ccccc3)CC2)c(Cl)c1 category=moderate
item_smiles=Oc1ccccc1/C=N/C1CCN(Cc2ccccc2)CC1 category=high
item_smiles=Clc1ccc(CNC2CCN(Cc3ccccc3)CC2)c(Cl)c1 category=low
item_smiles=Oc1ccc(CNC2CCN(Cc3ccccc3)CC2)cc1 category=high
item_smiles=C(=N\C1CCN(Cc2ccccc2)CC1)/c1ccccc1 category=high
item_smiles=FC(F)(F)c1ccc(CNC2CCN(Cc3ccccc3)CC2)cc1 category=low
item_smiles=Cc1ccc(/C=N/C2CCN(Cc3ccccc3)CC2)cc1 category=high
item_smiles=COc1cc(/C=N/C2CCN(Cc3ccccc3)CC2)cc(OC)c1OC category=high
item_smiles=COc1cccc(CNC2CCN(Cc3ccccc3)CC2)c1OC category=high
item_smiles=Oc1ccc(CNC2CCN(Cc3ccccc3)CC2)c(O)c1 category=high
item_smiles=O=[N+]([O-])c1ccc(CNC2CCN(Cc3ccccc3)CC2)cc1 category=low
item_smiles=Clc1ccc(/C=N/C2CCN(Cc3ccccc3)CC2)cc1 category=moderate
item_smiles=Cc1cccc(CNC2CCN(Cc3ccccc3)CC2)c1 category=high
item_smiles=c1ccc(CNC2CCN(Cc3ccccc3)CC2)cc1 category=moderate
item_smiles=Fc1ccc(CNC2CCN(Cc3ccccc3)CC2)c(F)c1 category=low
item_smiles=Clc1ccc(CNC2CCN(Cc3ccccc3)CC2)cc1 category=low
item_smiles=Oc1ccc(/C=N/C2CCN(Cc3ccccc3)CC2)c(O)c1 category=high
item_smiles=Cc1ccc(CNC2CCN(Cc3ccccc3)CC2)cc1 category=high
item_smiles=Fc1ccc(CNC2CCN(Cc3ccccc3)CC2)cc1 category=moderate
item_smiles=Fc1ccc(/C=N/C2CCN(Cc3ccccc3)CC2)c(F)c1 category=moderate
item_smiles=FC(F)(F)Oc1ccc(CNC2CCN(Cc3ccccc3)CC2)cc1 category=low
item_smiles=Cc1cccc(/C=N/C2CCN(Cc3ccccc3)CC2)c1 category=high
item_smiles=Oc1ccccc1CNC1CCN(Cc2ccccc2)CC1 category=high
item_smiles=COc1cccc(/C=N/C2CCN(Cc3ccccc3)CC2)c1OC category=high

----------
Recorded pIC50 values (Beta-secretase 1 (Homo sapiens, UniProt P56817)) are given below.
pIC50: −log10 of the molar value.
Assay Metric: pIC50

item_smiles=COc1cccc(CNC2CCN(Cc3ccccc3)CC2)c1OC assay_metric=pIC50 reported_measurement=5.28
item_smiles=Cc1ccc(CNC2CCN(Cc3ccccc3)CC2)cc1 assay_metric=pIC50 reported_measurement=4.77
item_smiles=Fc1ccc(CNC2CCN(Cc3ccccc3)CC2)c(F)c1 assay_metric=pIC50 reported_measurement=5.54
item_smiles=Oc1ccccc1CNC1CCN(Cc2ccccc2)CC1 assay_metric=pIC50 reported_measurement=5.70
item_smiles=FC(F)(F)Oc1ccc(CNC2CCN(Cc3ccccc3)CC2)cc1 assay_metric=pIC50 reported_measurement=5.85

----------
The reader will find reported IC50 values listed item by item below.
Assayed System: Cholinesterase (Homo sapiens, UniProt P06276)
Sequence (P06276 whole entry): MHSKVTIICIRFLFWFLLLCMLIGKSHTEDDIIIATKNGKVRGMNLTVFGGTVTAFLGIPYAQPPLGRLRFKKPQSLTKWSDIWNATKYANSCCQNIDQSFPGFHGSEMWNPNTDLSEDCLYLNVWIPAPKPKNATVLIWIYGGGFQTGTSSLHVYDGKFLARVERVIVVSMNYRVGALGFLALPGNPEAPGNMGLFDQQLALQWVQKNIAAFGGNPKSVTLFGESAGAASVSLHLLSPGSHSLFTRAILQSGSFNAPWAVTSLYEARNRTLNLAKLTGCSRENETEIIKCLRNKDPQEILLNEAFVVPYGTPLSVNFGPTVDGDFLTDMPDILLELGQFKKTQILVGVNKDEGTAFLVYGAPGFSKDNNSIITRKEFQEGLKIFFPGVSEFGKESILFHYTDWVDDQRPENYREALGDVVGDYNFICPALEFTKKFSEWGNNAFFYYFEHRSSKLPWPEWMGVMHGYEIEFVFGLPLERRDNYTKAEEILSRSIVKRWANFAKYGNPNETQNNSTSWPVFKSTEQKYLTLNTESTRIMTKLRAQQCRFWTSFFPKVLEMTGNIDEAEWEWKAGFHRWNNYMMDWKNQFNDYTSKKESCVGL
Experimental Protocol: Inhibition of human serum butyrylcholinesterase using BTCI as substrate pre-incubated for 10 mins followed by substrate addition and measured for 6 mins by Ellman's method
Assay Metric: IC50 (µM)

item_smiles=Clc1ccc(CNC2CCN(Cc3ccccc3)CC2)c(Cl)c1 assay_metric=IC50 unit_text=µM inequality_sign== reported_measurement=3.5
item_smiles=Oc1ccccc1/C=N/C1CCN(Cc2ccccc2)CC1 assay_metric=IC50 unit_text=µM inequality_sign== reported_measurement=16
item_smiles=Cc1cccc(CNC2CCN(Cc3ccccc3)CC2)c1 assay_metric=IC50 unit_text=µM inequality_sign=> reported_measurement=30
item_smiles=FC(F)(F)Oc1ccc(CNC2CCN(Cc3ccccc3)CC2)cc1 assay_metric=IC50 unit_text=µM inequality_sign== reported_measurement=3.5
item_smiles=COc1cc(/C=N/C2CCN(Cc3ccccc3)CC2)cc(OC)c1OC assay_metric=IC50 unit_text=µM inequality_sign== reported_measurement=11
item_smiles=Fc1ccc(CNC2CCN(Cc3ccccc3)CC2)c(F)c1 assay_metric=IC50 unit_text=µM inequality_sign== reported_measurement=3.1
item_smiles=COc1cccc(CNC2CCN(Cc3ccccc3)CC2)c1OC assay_metric=IC50 unit_text=µM inequality_sign== reported_measurement=7.2
item_smiles=c1ccc(CNC2CCN(Cc3ccccc3)CC2)cc1 assay_metric=IC50 unit_text=µM inequality_sign== reported_measurement=12
item_smiles=Oc1ccc(CNC2CCN(Cc3ccccc3)CC2)c(O)c1 assay_metric=IC50 unit_text=µM inequality_sign== reported_measurement=18
item_smiles=COc1cccc(/C=N/C2CCN(Cc3ccccc3)CC2)c1OC assay_metric=IC50 unit_text=µM inequality_sign=> reported_measurement=30
item_smiles=Oc1ccc(CNC2CCN(Cc3ccccc3)CC2)cc1 assay_metric=IC50 unit_text=µM inequality_sign=> reported_measurement=30
item_smiles=O=[N+]([O-])c1ccc(/C=N/C2CCN(Cc3ccccc3)CC2)cc1 assay_metric=IC50 unit_text=µM inequality_sign== reported_measurement=7.3
